# SYSTEM UNDER TEST: Menin-MLL (Homo sapiens, UniProt O00255)
# Construct: His-Menin (M1-L615 end); purchased BIORTUS BP9210
# Sequence (O00255 1-615 isoform O00255-1): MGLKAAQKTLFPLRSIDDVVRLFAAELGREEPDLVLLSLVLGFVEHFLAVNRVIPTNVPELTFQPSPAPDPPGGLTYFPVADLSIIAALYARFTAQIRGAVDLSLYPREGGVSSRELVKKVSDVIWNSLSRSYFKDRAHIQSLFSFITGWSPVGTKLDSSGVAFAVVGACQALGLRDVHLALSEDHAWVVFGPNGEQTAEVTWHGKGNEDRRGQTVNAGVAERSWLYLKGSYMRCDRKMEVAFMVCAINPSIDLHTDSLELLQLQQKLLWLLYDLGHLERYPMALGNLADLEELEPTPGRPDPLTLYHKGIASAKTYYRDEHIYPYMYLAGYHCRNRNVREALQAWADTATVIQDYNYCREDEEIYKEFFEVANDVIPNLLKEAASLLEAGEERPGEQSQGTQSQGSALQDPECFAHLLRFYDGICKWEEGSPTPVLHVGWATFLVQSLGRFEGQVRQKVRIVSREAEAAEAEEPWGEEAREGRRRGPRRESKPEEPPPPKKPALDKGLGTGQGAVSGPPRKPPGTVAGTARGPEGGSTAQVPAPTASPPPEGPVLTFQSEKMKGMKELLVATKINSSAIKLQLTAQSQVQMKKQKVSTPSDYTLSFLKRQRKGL
# PROCEDURE TEXT: Inhibitory activity against Menin-MLL binding (fluorescence polarization)
# CONDITION DESCRIPTION: fluorescence polarization; 150 nM His-Menin, 15 nM FITC-MLL; 25°C for 60 min; read-out: Menin-MLL IC50
Each record gets a class by IC50: Low = under 6 nM, Medium = from 6 nM up to 20 nM, High = 20 nM and over

1. Cc1nc(F)c2c(-c3ccc(F)cc3C(=O)N3CCOCC3C)cc(C3CN(C(CCCN4CCCC(O)C4)C(C)C)C3)cn12 (stereo not shown) : Low
2. CC(=O)N1CCC([C@@H](C(C)C)N2CC(c3cc(-c4ccc(F)cc4C(=O)N4CCOC[C@H]4C)c4c(F)nc(C)n4c3)C2)CC1 : High
3. CCN(C(=O)c1cc(F)ccc1-c1cc(C2CN([C@H](CCCN3CCN[C@H](COC)C3)C(C)C)C2)cn2c(C)ncc12)C(C)C : Low

# next compound below
Determine which band this compound sits in: `C[C@@H]1COCCN1C(=O)c1cc(F)ccc1-c1cc(C2CN(CC3CCN(C(=O)CC#N)CC3)C2)cc2c1cnn2C`
High

* * *

# Tested on: MV-4-11 (carrying MLL-AF4)
# PROCEDURE TEXT: Inhibition of proliferation of human tumor cells (Alamar Blue, 7 days), MV-4-11
# Format: cell-based
# CONDITION DESCRIPTION: Homo sapiens, MV4-11, 168 h, MV-4-11 cells (carrying MLL-AF4), method calls the value GI50
pIC50: −log10 of the molar value.
Mark 1.0 for reported pIC50 of 8 or greater; mark 0.0 for anything smaller.

Record excerpt, results attached:
1) CCS(=O)(=O)N[C@@H]1CC[C@@H](CN2CC(c3cc(-c4ccc(F)cc4C(=O)N(CC(F)F)C(C)C)c4c(F)nc(C)n4c3)C2)OC1 : 0.0
2) COCCN(C)CCC[C@H](C(C)C)N1CC(c2cc(-c3ccc(F)cc3C(=O)N3[C@H](C)COC[C@H]3C)c3cnn(C)c3c2)C1 : 1.0

For the next question, use this molecule.
Has `CO[C@@H]1CCN(CCC[C@H](C(C)C)N2CC(c3cc(-c4ccc(F)cc4C(=O)N4CCOC[C@H]4C)c4c(F)nc(C)n4c3)C2)C1` a recorded pIC50 greater than or equal to 8?
1.0

* * *

# SYSTEM UNDER TEST: Menin-MLL (Homo sapiens, UniProt O00255)
# Construct: His-Menin (M1-L615 end); purchased BIORTUS BP9210
# PROCEDURE TEXT: Inhibitory activity against Menin-MLL binding (fluorescence polarization)
# CONDITION DESCRIPTION: fluorescence polarization; 150 nM His-Menin, 15 nM FITC-MLL; 25°C for 60 min; read-out: Menin-MLL IC50
MEASURED PARAMETER: IC50 (nM)
Form entry: value (nM) — number only.

1) CCS(=O)(=O)N[C@H]1CC[C@H](CN2CC(c3cc(-c4ccc(F)cc4C(=O)N4CCOC[C@@H]4C)c4cnc(C)n4c3)C2)CC1 [Example 135] : 102
2) CCN(C(=O)c1cc(F)ccc1-c1cc(C2CN(C(CCC3(O)COC3)C(C)C)C2)cn2c(C)ncc12)C(C)C (stereo not drawn) [Example 447] : 25
3) CCN(C(=O)c1cc(F)ccc1-c1cc(C2CN([C@@H](C)C3CCN(C(=O)CO)CC3)C2)cn2c(C)nc(F)c12)C(C)C [Example 284-2] : 2
4) CCC(=O)NC1CCN(CCC[C@H](C(C)C)N2CC(c3cc(-c4ccc(F)cc4C(=O)N(CC)C(C)C)c4cnc(C)n4c3)C2)CC1 [Example 425] : 2.7
5) Cc1nc(F)c2c(-c3ccc(F)cc3C(=O)N3CCOC[C@H]3C)cc(C3CN(CC4CCN(S(C)(=O)=O)CC4)C3)cn12 [Example 273] : 44

Form: compound = Cc1ncc2c(-c3ccc(F)cc3C(=O)N3CCC[C@H]3C)cc(C3CN(C(C)C4CCOCC4)C3)cn12 (stereo partly drawn) [Example 190] ; IC50 = 29.5
